- target-or-test-system: β5c subunit of isolated human 20S proteasome (Homo sapiens, UniProt P28074)
- Construct: purchased Enzo Life Sciences
- method-description: Proteasome inhibition assay (20 S Proteasome Assay Kit, Suc‐LLVY‐AMC)
- Type: biochemical
- particulars: c=100 nM; read-out: Rel. Inhibition β5c
- Protocol: Proteasome inhibition assay. […] The 20 S Proteasome Assay Kit for Drug Discovery was used according to the supplier's protocol using Suc‐LLVY‐AMC (β5), Bz‐VGR‐AMC (β2) or Z‐LLE‐AMC (β1) as substrates (Enzo Life Sciences). […] After 30 min incubation, substrate was added (cfinal=100 μM), incubated for 60 minutes and fluorescence was read using a Tecan M1000 microplate reader. […] IC50 values were determined from technical duplicates as mean value of three independent experiments.
Peptide text beside a SMILES is read from it. * marks the point of attachment. Cbz = O=C(OCc1ccccc1)*; OtBu = CC(C)(C)O*
readout-label: inhibition at 0.1 µM (%)
Enter your answer as a number in %; do not include the unit.

So what's the measured inhibition at 0.1 µM for this one? Cc1ccc(NC(=O)C(=O)[C@H](CC(C)C)NC(=O)[C@H](CC(=O)OC(C)(C)C)NC(=O)[C@H](CC(C)C)NC(=O)c2cc(Cl)ccc2Cl)c(C)c1
26

For the compound CC(C)C[C@@H](C=O)NC(=O)[C@H](CC(=O)OC(C)(C)C)NC(=O)[C@H](CC(C)C)NC(=O)OCc1ccccc1 [Compound 5, BSc2118, reference compound] (Cbz-Leu-Asp(OtBu)-Leu-aldehyde) , what inhibition at 0.1 µM is on record?
54

Reported inhibition at 0.1 µM for Cc1ccc(NC(=O)C(=O)[C@H](CC(C)C)NC(=O)[C@H](CC(=O)OC(C)(C)C)NC(=O)[C@H](CC(C)C)NC(=O)OCc2ccccc2)c(C)c1 : what is it?
43
